Target: T1, recombinant purified human IL-12 p70 (human, UniProt P29459 23-219)
T1 construct: Disulfide-linked heterodimer of p35 and p40; also called hIL-12; Hu IL-12
T1 sequence 1: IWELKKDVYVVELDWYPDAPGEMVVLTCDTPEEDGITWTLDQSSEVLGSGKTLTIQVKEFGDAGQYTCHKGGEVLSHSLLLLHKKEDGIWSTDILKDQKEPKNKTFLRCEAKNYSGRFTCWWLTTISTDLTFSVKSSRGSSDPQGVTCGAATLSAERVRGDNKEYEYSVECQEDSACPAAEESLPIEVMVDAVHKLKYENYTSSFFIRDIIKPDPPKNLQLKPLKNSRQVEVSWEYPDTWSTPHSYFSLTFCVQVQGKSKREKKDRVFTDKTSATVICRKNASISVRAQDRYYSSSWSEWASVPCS
T1 sequence 2: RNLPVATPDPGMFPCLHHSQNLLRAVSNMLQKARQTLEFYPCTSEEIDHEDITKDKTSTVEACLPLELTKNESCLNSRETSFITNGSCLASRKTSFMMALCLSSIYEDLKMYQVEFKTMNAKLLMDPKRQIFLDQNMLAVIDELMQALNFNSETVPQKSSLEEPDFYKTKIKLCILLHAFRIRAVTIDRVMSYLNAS
Assay: SPR (BIAcore) as in Example 1.1.B, human IL-12p70
RECORDED_ENDPOINT: koff

INPUT: Which koff value is on record for anti-IL-12p40 humanized antibody 1A6.9 (antibody, human IgG1, kappa, L234A L235A, V domains shown, Back-mutated CDR-grafted antibody; COS cells) VH: EVTLRESGPALVKPTQTLTLTCTFSGFSLSTSGMGVSWIRQPPGKALEWLAHIWWDGDNYYNPSLKSRLTISKDTSKNQVVLTMTNMDPVDTATYYCARRTRVNYAMDYWGQGTTVTVSS VL: SVVMTQSPDSLAVSLGERATINCKASQSVSNDVAWFQQKPGQPPKLLIYYASNRYTGVPDRFSGSGYGTDFTLTISSLQAEDVAVYYCQQDYNSPWTFGGGTKVEIKR ?
OUTPUT: < 1e-05 s⁻¹
